Measurement Target: UniProtKB Q02809
Sequence (Q02809 19-727): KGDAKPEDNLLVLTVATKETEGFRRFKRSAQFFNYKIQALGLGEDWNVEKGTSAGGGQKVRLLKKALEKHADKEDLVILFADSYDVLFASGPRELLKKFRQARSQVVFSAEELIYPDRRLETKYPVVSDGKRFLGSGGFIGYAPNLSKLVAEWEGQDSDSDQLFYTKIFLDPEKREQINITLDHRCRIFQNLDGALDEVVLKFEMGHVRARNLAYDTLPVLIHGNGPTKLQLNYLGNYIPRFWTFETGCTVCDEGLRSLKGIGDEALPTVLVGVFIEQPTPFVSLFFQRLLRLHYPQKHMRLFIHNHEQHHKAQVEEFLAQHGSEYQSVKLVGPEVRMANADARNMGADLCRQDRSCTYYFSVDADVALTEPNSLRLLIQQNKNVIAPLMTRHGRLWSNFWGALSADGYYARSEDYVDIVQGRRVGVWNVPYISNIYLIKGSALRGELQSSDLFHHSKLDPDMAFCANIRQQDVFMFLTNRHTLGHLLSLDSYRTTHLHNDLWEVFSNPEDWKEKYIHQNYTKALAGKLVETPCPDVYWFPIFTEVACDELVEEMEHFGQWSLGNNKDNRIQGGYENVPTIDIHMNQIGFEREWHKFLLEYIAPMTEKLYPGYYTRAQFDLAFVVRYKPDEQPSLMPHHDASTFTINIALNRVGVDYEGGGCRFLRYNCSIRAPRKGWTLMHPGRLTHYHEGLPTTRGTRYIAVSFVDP
Experiment Description: enzyme test, hydroxylation of insufficiently hydroxylated collagen by lysyl hydroxylase (cell-free)
Assay type: biochemical
Condition Info: concentration at which the enzyme reaction is inhibited by 50%; first part of Table; read-out: DI50 lysylhydroxylase
Recorded pIC50, one value per entry.
Friendly reminder that pIC50 comes from taking -log10 of the concentration in mol/L.

These solved cases illustrate the format of a correct answer.
INSERT INTO results (molecule, numeric_result) VALUES
  ('Cc1ccc(O)c(C2=NC(C(=O)O)CS2)c1 (stereo not drawn)', 4.55),
  ('O=C(O)[C@@H]1CSC(c2cc(Br)cc(Br)c2O)N1 (stereo partly drawn)', 5.00),
  ('O=C(O)C1CSC(c2ccccc2O)=N1 (stereo not drawn)', 4.55),
  ('O=C(O)C1CSC(c2ccc(O)cc2O)=N1 (stereo not drawn)', 4.80),
  ('Cc1ccc(O)c(-c2nc(C(=O)O)cs2)c1', 4.17);

Exam item: Name the recorded pIC50 of the molecule listed here: O=C(O)[C@@H]1CSC(c2ccccc2O)N1 (stereo partly drawn)
Marked response: 4.55

Exam item: Give me measured pIC50, please, for this molecule: O=C(O)C1CSC(c2cc(Cl)ccc2O)=N1 (stereo not drawn)
Marked response: 4.92
